TARGET DESC: Human GLP-1 receptor (Homo sapiens, UniProt P43220)
Construct: The full-length cDNA was cloned in pcDNA3.1(+); expressed in transfected cells
Sequence (P43220 24-463): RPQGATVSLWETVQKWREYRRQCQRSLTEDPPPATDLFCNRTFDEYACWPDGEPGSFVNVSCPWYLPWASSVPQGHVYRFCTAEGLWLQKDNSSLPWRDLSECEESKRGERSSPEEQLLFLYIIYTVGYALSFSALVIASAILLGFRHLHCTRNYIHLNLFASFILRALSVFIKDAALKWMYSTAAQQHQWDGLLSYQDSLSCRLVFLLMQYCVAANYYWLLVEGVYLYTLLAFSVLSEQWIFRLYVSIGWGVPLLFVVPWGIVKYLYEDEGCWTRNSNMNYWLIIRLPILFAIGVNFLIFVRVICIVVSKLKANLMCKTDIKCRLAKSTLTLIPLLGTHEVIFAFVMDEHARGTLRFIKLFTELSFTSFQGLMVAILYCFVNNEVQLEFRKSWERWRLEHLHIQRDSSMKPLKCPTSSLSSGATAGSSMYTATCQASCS
Type: cell-based
MEASUREMENT CONDITIONS: 10 μM test compound
READOUT: Human GLP-1 R activity (cAMP release), % activity with respect to control
Phrase the answer as number then unit, nothing more needed.

1. CCc1cc(OC)ccc1-c1ccc(CC(NC(=O)[C@H](CC(=O)O)NC(=O)[C@H](CO)NC(=O)[C@@H](NC(=O)C(C)(Cc2ccccc2F)NC(=O)[C@@H](NC(=O)CNC(=O)[C@H](CCC(N)=O)NC(=O)C(C)(C)NC(=O)[C@@H](N)Cc2c[nH]cn2)[C@@H](C)O)[C@@H](C)O)C(=O)NC(Cc2ccc(-c3ccccc3F)cc2)C(N)=O)cc1 (single isomer, unassigned) = 99 ± 0.03%
2. CCc1cc(OC)ccc1-c1ccc(CC(NC(=O)[C@H](CC(=O)O)NC(=O)[C@H](CO)NC(=O)[C@@H](NC(=O)[C@H](Cc2ccccc2)NC(=O)[C@@H](NC(=O)CNC(=O)[C@H](CCC(N)=O)NC(=O)C(C)(C)NC(=O)[C@@H](N)Cc2c[nH]cn2)[C@@H](C)O)[C@@H](C)O)C(=O)NC(Cc2ccc(-c3ccccc3C)cc2)C(N)=O)cc1 (single isomer, unassigned) = 99 ± 0.09%

// switching to the query compound
Query: Quick one: Human GLP-1 R activity (cAMP release), % activity with respect to control for CCc1cc(OC)ccc1-c1ccc(CC(NC(=O)[C@H](CC(=O)O)NC(=O)[C@H](CO)NC(=O)[C@@H](NC(=O)C(C)(Cc2ccccc2F)NC(=O)[C@@H](NC(=O)CNC(=O)[C@H](CCC(N)=O)NC(=O)C2(NC(=O)[C@@H](N)Cc3c[nH]cn3)CC2)[C@@H](C)O)[C@@H](C)O)C(=O)NC(Cc2ccc(-c3ccccc3C(F)(F)F)cc2)C(N)=O)cc1 (single isomer, unassigned) ?
Reply: 99 ± 0.08%
